meta.source: paper PMC5580926

Measured CC50 of individual entries
- protocol_notes: ATPlite cytotoxicity assay under Con1b replicon efficacy assay conditions
- Format: cell-based
- condition_info: human

{"compound": "CC(C)(C)NC(=O)N[C@H](C(=O)N1C[C@H]2[C@@H]([C@H]1C(=O)NC(CC1CCC1)C(=O)C(N)=O)C2(C)C)C(C)(C)C (some centres unmarked)", "meas_value": "> 100 µM"}

Switching to the query record.
I'd like to know its CC50. The compound in question is CC(C)OC(=O)[C@H](C)N[P@](=O)(OC[C@H]1O[C@@H](n2ccc(=O)[nH]c2=O)[C@](C)(F)[C@@H]1O)Oc1ccccc1
> 100 µM

---

- protocol_notes: in vitro
- Format: cell-based
- condition_info: human
recorded_endpoint: CC50

{"compound": "C[C@@]1(O)[C@H](O)[C@@H](CO)O[C@H]1n1ccc(N)nc1=O [2′-C-methylcytidine]", "meas_value": "> 100 µM"}
{"compound": "CCC[C@H](NC(=O)[C@@H]1[C@H]2CCC[C@H]2CN1C(=O)[C@@H](NC(=O)[C@@H](NC(=O)c1cnccn1)C1CCCCC1)C(C)(C)C)C(=O)C(=O)NC1CC1 [Telaprevir, telaprevir]", "meas_value": "> 100 µM"}
{"compound": "CC(C)OC(=O)[C@H](C)N[P@](=O)(OC[C@H]1O[C@@H](n2ccc(=O)[nH]c2=O)[C@](C)(F)[C@@H]1O)Oc1ccccc1 [Sofosbuvir, sofosbuvir]", "meas_value": "> 100 µM"}
{"compound": "COC(=O)N[C@H](C(=O)N1CCC[C@H]1c1nc(-c2ccc(-c3ccc(-c4c[nH]c([C@@H]5CCCN5C(=O)[C@@H](NC(=O)OC)C(C)C)n4)cc3)cc2)c[nH]1)C(C)C [Daclatasvir, daclatasvir]", "meas_value": "45 µM"}

Here is the next item to consider.
Can you share its CC50? I mean this compound: CC(C)(C)NC(=O)N[C@H](C(=O)N1C[C@H]2[C@@H]([C@H]1C(=O)NC(CC1CCC1)C(=O)C(N)=O)C2(C)C)C(C)(C)C (some centres unmarked) [Boceprevir, boceprevir]
> 100 µM
